Values compiled from ChEMBL document CHEMBL6078712.

# reported pIC50; entries follow
- Test system: K562
- Experimental details: Cytotoxicity against human K562 cells assessed as inhibition of cell growth incubated for 72 hrs by MTS assay
- Assay type: functional, cell-based
- Measurement setup: K562, 72 h
Scale for pIC50: -log10 of concentration given in mol/L; no unit attached.

Use these answered entries as a reference point.
Qu. State its pIC50 for this compound: CC(=O)O[C@H]1CC[C@]2(C)[C@H]3CC[C@@H]4[C@H]5[C@H](c6ccc7c(c6)C(=O)N(c6cc[nH]n6)C7=O)CC[C@]5(C(=O)O)CC[C@@]4(C)[C@]3(C)CC[C@H]2C1(C)C
Ans. 4.53

Qu. Output measured pIC50 for this item: CC(=O)O[C@H]1CC[C@]2(C)[C@H]3CC[C@@H]4[C@H]5[C@H](c6cc7c(c(-c8ccccc8)c6)C(=O)N(c6cc[nH]n6)C7=O)CC[C@]5(C(=O)O)CC[C@@]4(C)[C@]3(C)CC[C@H]2C1(C)C
Ans. 4.84

Others:
Qu. Please indicate pIC50 recorded for CC1(C)[C@@H](O)CC[C@]2(C)[C@H]3CC[C@@H]4[C@H]5[C@H](c6ccc7c(c6)C(=O)NC7=O)CC[C@]5(C(=O)O)CC[C@@]4(C)[C@]3(C)CC[C@@H]12
Ans. 4.45

---

- Experimental details: Cytotoxicity against human K562-Tax cells assessed as inhibition of cell growth incubated for 72 hrs by MTS assay
- Assay type: functional, cell-based
Outcome measure: IC50 (µM)
// note: answer is a bare numeric in µM

Qu. Identify the reported IC50 for the following entry. CC1(C)[C@@H](O)CC[C@]2(C)[C@H]3CC[C@@H]4[C@H]5[C@H](c6cc7c(c(-c8ccccc8)c6)C(=O)N(c6ccccc6)C7=O)CC[C@]5(C(=O)O)CC[C@@]4(C)[C@]3(C)CC[C@@H]12
Ans. 23.1

We next turn to a different molecule, shown below.
Qu. Supply reported IC50 belonging to this molecule: CC1(C)[C@@H](O)CC[C@]2(C)[C@H]3CC[C@@H]4[C@H]5[C@H](c6cc7c(c(-c8ccccc8)c6)C(=O)N(c6ccc(N)cc6)C7=O)CC[C@]5(C(=O)O)CC[C@@]4(C)[C@]3(C)CC[C@@H]12
Ans. 4.34

---

- Experimental details: Cytotoxicity against human K562-Tax cells assessed as inhibition of cell growth incubated for 72 hrs by MTS assay
- Assay type: functional, cell-based
Outcome measure: pIC50
The quantity pIC50 is defined as the negative base-10 logarithm of the molar concentration.

Qu. Name the recorded pIC50 of the item CC(=O)O[C@H]1CC[C@]2(C)[C@H]3CC[C@@H]4[C@H]5[C@H](c6cc7c(c(-c8ccccc8)c6)C(=O)N(c6nccs6)C7=O)CC[C@]5(C(=O)O)CC[C@@]4(C)[C@]3(C)CC[C@H]2C1(C)C in your answer.
Ans. 4.61

---

- Experimental details: Cytotoxicity against human K562-Tax cells assessed as inhibition of cell growth incubated for 72 hrs by MTS assay
- Type: functional, cell-based
Outcome measure: IC50

Consider the following illustrative entries.
Qu. Specify IC50 for CC1(C)[C@@H](O)CC[C@]2(C)[C@H]3CC[C@@H]4[C@H]5[C@H](c6ccc7c(c6)C(=O)NC7=O)CC[C@]5(C(=O)O)CC[C@@]4(C)[C@]3(C)CC[C@@H]12 and stop.
Ans. 17.3 µM

Qu. Give reported IC50 value for CC(=O)OC[C@]12CC[C@@H](c3cc4c(c(-c5ccccc5)c3)C(=O)NC4=O)[C@@H]1[C@H]1CC[C@@H]3[C@@]4(C)CC[C@H](OC(C)=O)C(C)(C)[C@@H]4CC[C@@]3(C)[C@]1(C)CC2
Ans. > 50 µM

Then this compound:
Qu. Check the records and state IC50 for CC(=O)O[C@H]1CC[C@]2(C)[C@H]3CC[C@@H]4[C@H]5[C@H](c6cc7c(c(-c8ccccc8)c6)C(=O)NC7=O)CC[C@]5(CO)CC[C@@]4(C)[C@]3(C)CC[C@H]2C1(C)C
Ans. > 50 µM
